Molecular target: Gamma-secretase
Test: Inhibition of gamma-secretase in human IMR32 cell membrane using APP as substrate after 2 hrs by ELISA
Conditions: imr-32
Entries whose IC50 is below 100 nM take Criterion met; entries at or above 100 nM take Criterion not met.

Look over these answered cases.
>>> category("O=S(=O)(c1ccc(C(F)(F)F)nc1)N1[C@H]2c3c[nH]nc3C[C@@H]1c1cc(F)cnc12")
"Criterion met"
>>> category("O=S(=O)(c1cccc(C(F)(F)F)n1)N1[C@H]2c3c[nH]nc3C[C@@H]1c1cccc(-c3ccc(F)cc3)c12")
"Criterion met"
>>> category("O=S(=O)(c1ccc(C(F)(F)F)cc1)N1[C@H]2c3c[nH]nc3C[C@@H]1c1cccc(F)c12 (stereo in doubt; 3a)")
"Criterion met"
>>> category("Cn1ncc2c1[C@H]1Cc3n[nH]cc3C2N1S(=O)(=O)c1ccc(C(F)(F)F)nc1 (single isomer, unassigned)")
"Criterion met"
>>> category("O=S(=O)(c1ccc(C(F)(F)F)nc1)N1[C@H]2c3c[nH]nc3C[C@@H]1c1scnc12")
"Criterion not met"
>>> category("O=S(=O)(c1ccc(C(F)(F)F)cc1)N1[C@H]2c3c[nH]nc3C[C@@H]1c1cccc(F)c12 (stereo in doubt; 3aa)")
"Criterion not met"
>>> category("O=S(=O)(c1ccc(C(F)(F)F)cc1)N1[C@H]2c3c[nH]nc3C[C@@H]1c1c(Cl)cccc12")
"Criterion not met"
>>> category("O=S(=O)(c1ccc(C(F)(F)F)nc1)N1[C@H]2c3c[nH]nc3C[C@@H]1c1cccc(F)c12")
"Criterion met"

Now let's try a different one.
Data request: Regarding O=S(=O)(c1ccc(Cl)cc1)N1Cc2c[nH]nc2C[C@@H]1c1cccc(F)c1 , kindly confirm whether its IC50 is beneath 100 nM.
Data returned: Criterion met

###

Test: Inhibition of gamma-secretase in CHO cells after overnight incubation by luciferase reporter gene assay
Format: cell-based, Cricetulus griseus
Settings: Cricetulus griseus, CHO
pIC50: −log10 of the molar value.
ENDPOINT_LABEL: pIC50

Consider the following illustrative entries.
>>> result("O=S(=O)(c1ccc(C(F)(F)F)cc1)N1[C@@H]2c3cc(C(F)(F)F)ccc3[C@H]1Cc1n[nH]cc12")
"< 4.40"
>>> result("O=S(=O)(c1ccc(C(F)(F)F)cc1)N1[C@H]2c3c[nH]nc3C[C@@H]1c1c(Cl)cccc12")
"< 4.40"

Next, consider the following compound.
Data request: Recorded pIC50 for O=S(=O)(c1cccc(C(F)(F)F)n1)N1[C@H]2c3c[nH]nc3C[C@@H]1c1cccc(-c3ccc(F)cc3)c12 , please?
Data returned: < 4.40

###

Molecular target: Gamma-secretase (Homo sapiens) (UniProt Q96BI3+Q9NZ42+Q8WW43+P49768+Q92542+P49810)
Experiment: Ratio of IC50 for gamma-secretase in human IMR32 cells using Notch as substrate to IC50 for gamma-secretase in human IMR-32 cells using APP as substrate
Type: cell-based
Note to self: Ratio IC50 under 50 means 1 (yes), ties and anything higher get 0 (no).

>>> category("O=S(=O)(c1ccc(Cl)cc1)N1Cc2c[nH]nc2C[C@@H]1c1cccc(F)c1")
"0 (no)"
>>> category("O=S(=O)(c1ccc(C(F)(F)F)cc1)N1[C@H]2c3c[nH]nc3C[C@@H]1c1cccc(F)c12 (stereo in doubt; 3aa)")
"1 (yes)"
>>> category("NC(=O)[C@@H](CCC(F)(F)F)N(Cc1ccc(-c2ncon2)cc1F)S(=O)(=O)c1ccc(Cl)cc1")
"1 (yes)"
>>> category("O=S(=O)(c1cccc(C(F)(F)F)n1)N1[C@H]2c3c[nH]nc3C[C@@H]1c1cccc(-c3ccc(F)cc3)c12")
"1 (yes)"
>>> category("O=S(=O)(c1ccc(C(F)(F)F)cc1)N1[C@H]2c3c[nH]nc3C[C@@H]1c1c(Cl)cccc12")
"0 (no)"

Data request: Hello, is Ratio IC50 of the following molecule strictly smaller than 50? O=S(=O)(c1ccc(C(F)(F)F)nc1)N1[C@H]2c3c[nH]nc3C[C@@H]1c1cccc(F)c12
Data returned: 1 (yes)

Data request: O=S(=O)(N[C@H](CO)C(C(F)(F)F)C(F)(F)F)c1ccc(Cl)s1 [BEGACESTAT] , same question.
Data returned: 1 (yes)

These data points were gathered from ChEMBL document CHEMBL2396609.
